Target sequence: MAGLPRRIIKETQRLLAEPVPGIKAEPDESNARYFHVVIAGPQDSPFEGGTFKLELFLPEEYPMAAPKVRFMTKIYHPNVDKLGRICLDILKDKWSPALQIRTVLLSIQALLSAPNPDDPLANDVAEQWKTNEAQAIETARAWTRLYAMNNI
Endpoint Label: Kd (µM)
Numbers only; they are read as µM.

For COC(=O)c1cc2c(cn1)[nH]c1ccc(O)cc12 [Variabine B] , what is its reported Kd?
35.3
